Values from patent US20240400689A1

- test.system: T1, human CD276 protein (human, UniProt Q5ZPR3 29-534)
- T1 sequence (looked up): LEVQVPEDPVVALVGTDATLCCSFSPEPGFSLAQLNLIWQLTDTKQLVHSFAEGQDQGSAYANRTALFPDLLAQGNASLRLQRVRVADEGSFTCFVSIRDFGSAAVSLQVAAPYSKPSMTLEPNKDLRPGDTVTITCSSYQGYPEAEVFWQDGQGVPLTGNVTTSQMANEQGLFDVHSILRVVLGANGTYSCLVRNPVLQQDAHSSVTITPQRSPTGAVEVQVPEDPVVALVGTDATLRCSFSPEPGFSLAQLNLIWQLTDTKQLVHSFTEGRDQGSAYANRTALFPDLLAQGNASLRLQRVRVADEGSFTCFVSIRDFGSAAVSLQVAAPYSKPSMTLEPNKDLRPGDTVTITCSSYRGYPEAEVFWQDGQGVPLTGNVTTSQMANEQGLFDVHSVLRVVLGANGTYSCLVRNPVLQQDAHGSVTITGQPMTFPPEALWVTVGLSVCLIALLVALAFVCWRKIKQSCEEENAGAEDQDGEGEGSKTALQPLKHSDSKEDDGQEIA
- assay.notes: cell-based or functional assay
parameter.measured: EC50 of antibody induced ADCC effect on SKOV3

Example binders with recorded EC50 of antibody induced ADCC effect on SKOV3:
## Input Looking for the measured EC50 of antibody induced ADCC effect on SKOV3 of 23-F10-G4-F11 (human IgG1 chimeric antibody) (antibody, V domains shown, human IgG1 chimeric antibody of the mouse clone) VH: EVQLQESGPDLVRPGALVKLSCKSSGFNIKDYPIHWVRQRPEQGLEWIGWFDPDNGNVIYDPRFQGKASITADTSSNTAYLQLNSLTSEDTAVYYCSSPYGAMDYWGQGTSVTVSS VL: QIVLTQSPEIMSASPGEKVTMTCSASSSVSYIHWYQQKSGTSPKRWIYDTSKLASGVPARFSGSGSGTSYSLTIRSMEAEDAATYYCQQGSSNPRTFGGGTKLEIK , can you help?
## Output 0.137 µg/mL

## Input Name the reported EC50 of antibody induced ADCC effect on SKOV3 value associated with the binder 20-F8-B5-G2 (human IgG1 chimeric antibody) (antibody, V domains shown, human IgG1 chimeric antibody of the mouse clone) VH: EVQLQESGPSLVKPSQTLSLTCSVTGDSITSAYWNWIRKFPGNKLEYMGYISNSGSTYYNPSLKSRISITRDTSKNQYYLQLNSVTTEDTGTYYCVRGERYYGYGAYWGQGTLVTVSA VL: DIVMTQATPSVPVTPGESISISCRSSKSLLHSNGNTYLYWFLQRPGQSPQLLIYRMSNLASGVPDRFSGSGSGTAFTLRISRVEAEDVGVYYCMQHLEYPFTFGAGTKLELK
## Output 3.01 µg/mL

Pending binder:
## Input EC50 of antibody induced ADCC effect on SKOV3 for 3-G7-D8-D3 (human IgG1 chimeric antibody) (antibody, V domains shown, human IgG1 chimeric antibody of the mouse clone) VH: QVQLQQSGAELARPGTSVKLSCKASGYTFTTYWIQWVKQRPGQGLEWIGAIYPGDGDTRYTQKFKGKATLTADKSSSTAYMQLSTLASEDSAVYYCARPYDGYYIDYPMDSWGQGTSVTVSS VL: QIVLTQSPAIMSASPGEKVTMTCSASSRINYMHWYQQKPGTSPIIWIYDTSKLASGVPARFSGSGSGTSYSLTISSMEAEDAATYYCHQRSSYPFTFGSGTKLEIK ?
## Output 0.00898 µg/mL
